Test system: Vaccinia Copenhagen
Assay type: cell-based
SI listing for selected molecules.

Compound structure | Modifier | SI
Nc1ccn(C[C@@H](CO)OCP(=O)(O)O)c(=O)n1 | > | 10
CCCCCCCCCCCCCCCCCCOC[C@H](COP(=O)(O)CO[C@H](CO)Cn1ccc(N)nc1=O)OCc1ccccc1 | = | 118
CCCCCCCCCCCCCCCCCCOCCOP(=O)(O)CO[C@H](CO)Cn1ccc(N)nc1=O | = | 105
CCCCCCCCCCCCCCCCOCCCOP(=O)(O)CO[C@H](CO)Cn1ccc(N)nc1=O | = | 48
